Entries and their Ki
Target: Serotonin 2 (5-HT2) receptor (Rattus norvegicus, UniProt P30994+P08909+P14842)
Assay: Binding affinity against [3H]ketanserin binding to 5-hydroxytryptamine 2 receptor expressed in CHO-K1 cells
Format: cell-based

{"COMPOUND": "CCCN1CCC(c2cccc3ccccc23)C1 (centres undefined)", "Ki, nM": 113}
{"COMPOUND": "c1ccc2c(C3CCNC3)cccc2c1 (centres undefined)", "Ki, nM": 40}
{"COMPOUND": "CCCN1CCC(c2cccc(C(F)(F)F)c2)C1 (centres undefined)", "Ki, nM": 569}
{"COMPOUND": "FC(F)(F)c1cccc(C2CCNC2)c1 (centres undefined)", "Ki, nM": 227}
